Target: CFTR G551D mutant (Homo sapiens, UniProt P13569, G551D)
Construct: expressed in transfected cells; host or cells: HEK293 (reverse transfection with plasmid)
Sequence (P13569 whole entry G551D): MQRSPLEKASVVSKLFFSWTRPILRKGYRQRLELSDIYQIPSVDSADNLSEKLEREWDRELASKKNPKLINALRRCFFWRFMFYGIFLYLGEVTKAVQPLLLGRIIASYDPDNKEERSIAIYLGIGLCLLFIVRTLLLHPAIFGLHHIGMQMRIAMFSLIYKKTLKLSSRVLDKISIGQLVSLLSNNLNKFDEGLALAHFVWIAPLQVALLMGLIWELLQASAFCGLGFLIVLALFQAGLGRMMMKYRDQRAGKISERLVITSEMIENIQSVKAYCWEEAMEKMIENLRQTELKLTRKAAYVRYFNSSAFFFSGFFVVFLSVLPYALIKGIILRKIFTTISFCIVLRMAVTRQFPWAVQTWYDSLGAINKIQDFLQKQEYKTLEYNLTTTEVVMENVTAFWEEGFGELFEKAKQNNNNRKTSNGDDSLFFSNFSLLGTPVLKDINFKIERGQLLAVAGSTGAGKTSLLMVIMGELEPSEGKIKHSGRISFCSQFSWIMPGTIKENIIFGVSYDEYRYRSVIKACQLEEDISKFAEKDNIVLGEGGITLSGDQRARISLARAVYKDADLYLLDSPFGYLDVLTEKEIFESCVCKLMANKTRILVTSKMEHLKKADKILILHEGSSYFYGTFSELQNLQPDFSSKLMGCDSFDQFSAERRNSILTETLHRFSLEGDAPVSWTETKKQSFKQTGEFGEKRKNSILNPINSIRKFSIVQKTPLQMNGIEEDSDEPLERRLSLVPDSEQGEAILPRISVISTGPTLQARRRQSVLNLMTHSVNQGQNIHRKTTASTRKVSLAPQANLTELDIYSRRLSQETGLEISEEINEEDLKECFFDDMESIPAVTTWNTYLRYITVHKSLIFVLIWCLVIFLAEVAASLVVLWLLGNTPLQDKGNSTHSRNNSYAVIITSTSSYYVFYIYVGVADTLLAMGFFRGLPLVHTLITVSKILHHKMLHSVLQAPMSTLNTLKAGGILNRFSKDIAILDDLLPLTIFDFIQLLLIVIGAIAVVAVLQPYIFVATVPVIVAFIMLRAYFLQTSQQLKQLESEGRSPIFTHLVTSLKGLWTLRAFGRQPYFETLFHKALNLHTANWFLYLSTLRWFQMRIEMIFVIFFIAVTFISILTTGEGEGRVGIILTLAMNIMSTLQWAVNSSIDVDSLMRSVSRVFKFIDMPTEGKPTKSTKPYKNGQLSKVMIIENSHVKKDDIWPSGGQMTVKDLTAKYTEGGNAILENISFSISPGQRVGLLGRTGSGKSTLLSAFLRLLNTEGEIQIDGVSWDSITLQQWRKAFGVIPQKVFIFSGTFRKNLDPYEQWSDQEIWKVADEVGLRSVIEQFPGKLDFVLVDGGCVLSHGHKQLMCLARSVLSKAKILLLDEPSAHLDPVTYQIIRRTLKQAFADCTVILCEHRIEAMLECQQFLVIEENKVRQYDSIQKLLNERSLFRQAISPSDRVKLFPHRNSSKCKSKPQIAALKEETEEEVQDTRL
Experiment: YFP-halide influx assay for the CFTR-G551D mutation
Type: cell-based
Conditions: HEK293 cells, forskolin 10.67 μM
measured parameter: EC50 (nM)

COc1cc(S(=O)(=O)c2cc(C(N)=O)c(NC(=O)C(C)(C)O)s2)c(OC(F)F)cc1F: 1400

P: CC(C)(O)C(=O)Nc1sc(S(=O)(=O)c2cc(F)c(F)cc2Cl)cc1C(N)=O
Q: CC(C)C(O)C(=O)Nc1sc(S(=O)(=O)c2ccc(F)cc2)cc1C(N)=O (centres unmarked) [Compound 341]
Input: Quick one: lower EC50, P or Q ? Reply with the label of the item you choose.
Output: P

P: NC(=O)c1cc(S(=O)(=O)c2ccc(OC(F)(F)F)cc2)sc1NC(=O)C1(CO)CC1
Q: CC(CO)C(=O)Nc1sc(S(=O)(=O)c2ccc(C(F)(F)F)cc2)cc1C(N)=O (centres unmarked)
Input: Pick one, P or Q : lowest reported EC50. Answer by quoting the chosen item's label.
Output: P
(P: 301 nM, Q: 691 nM)

P: CC(C)(O)C(=O)Nc1sc(S(=O)(=O)c2ccc(C#N)cc2C(F)(F)F)cc1C(N)=O
Q: CC(C)(O)C(=O)Nc1sc(S(=O)(=O)c2ccc(F)cc2)cc1C(N)=O
Input: Field: lower EC50 | Options: P / Q Write down the label of the entry you select.
Output: Q

A: NC(=O)c1cc(S(=O)(=O)N2CCC(F)(F)CC2)sc1NC(=O)c1cc[nH]n1
B: CC(C)Oc1ccc(S(=O)(=O)c2cc(C(N)=O)c(NC(=O)C(C)(C)O)s2)cc1
Input: // task: argmin of EC50 over [ A , B ] Refer to your chosen item by its label in the answer.
Output: A

---

Biological target: CFTR ΔF508 mutant (Homo sapiens, UniProt P13569, DEL508-508)
Construct: expressed in transfected cells; host or cells: CFBE41o- (adenoviral transduction)
Sequence (P13569 with tags, fused parts or gaps DEL508-508): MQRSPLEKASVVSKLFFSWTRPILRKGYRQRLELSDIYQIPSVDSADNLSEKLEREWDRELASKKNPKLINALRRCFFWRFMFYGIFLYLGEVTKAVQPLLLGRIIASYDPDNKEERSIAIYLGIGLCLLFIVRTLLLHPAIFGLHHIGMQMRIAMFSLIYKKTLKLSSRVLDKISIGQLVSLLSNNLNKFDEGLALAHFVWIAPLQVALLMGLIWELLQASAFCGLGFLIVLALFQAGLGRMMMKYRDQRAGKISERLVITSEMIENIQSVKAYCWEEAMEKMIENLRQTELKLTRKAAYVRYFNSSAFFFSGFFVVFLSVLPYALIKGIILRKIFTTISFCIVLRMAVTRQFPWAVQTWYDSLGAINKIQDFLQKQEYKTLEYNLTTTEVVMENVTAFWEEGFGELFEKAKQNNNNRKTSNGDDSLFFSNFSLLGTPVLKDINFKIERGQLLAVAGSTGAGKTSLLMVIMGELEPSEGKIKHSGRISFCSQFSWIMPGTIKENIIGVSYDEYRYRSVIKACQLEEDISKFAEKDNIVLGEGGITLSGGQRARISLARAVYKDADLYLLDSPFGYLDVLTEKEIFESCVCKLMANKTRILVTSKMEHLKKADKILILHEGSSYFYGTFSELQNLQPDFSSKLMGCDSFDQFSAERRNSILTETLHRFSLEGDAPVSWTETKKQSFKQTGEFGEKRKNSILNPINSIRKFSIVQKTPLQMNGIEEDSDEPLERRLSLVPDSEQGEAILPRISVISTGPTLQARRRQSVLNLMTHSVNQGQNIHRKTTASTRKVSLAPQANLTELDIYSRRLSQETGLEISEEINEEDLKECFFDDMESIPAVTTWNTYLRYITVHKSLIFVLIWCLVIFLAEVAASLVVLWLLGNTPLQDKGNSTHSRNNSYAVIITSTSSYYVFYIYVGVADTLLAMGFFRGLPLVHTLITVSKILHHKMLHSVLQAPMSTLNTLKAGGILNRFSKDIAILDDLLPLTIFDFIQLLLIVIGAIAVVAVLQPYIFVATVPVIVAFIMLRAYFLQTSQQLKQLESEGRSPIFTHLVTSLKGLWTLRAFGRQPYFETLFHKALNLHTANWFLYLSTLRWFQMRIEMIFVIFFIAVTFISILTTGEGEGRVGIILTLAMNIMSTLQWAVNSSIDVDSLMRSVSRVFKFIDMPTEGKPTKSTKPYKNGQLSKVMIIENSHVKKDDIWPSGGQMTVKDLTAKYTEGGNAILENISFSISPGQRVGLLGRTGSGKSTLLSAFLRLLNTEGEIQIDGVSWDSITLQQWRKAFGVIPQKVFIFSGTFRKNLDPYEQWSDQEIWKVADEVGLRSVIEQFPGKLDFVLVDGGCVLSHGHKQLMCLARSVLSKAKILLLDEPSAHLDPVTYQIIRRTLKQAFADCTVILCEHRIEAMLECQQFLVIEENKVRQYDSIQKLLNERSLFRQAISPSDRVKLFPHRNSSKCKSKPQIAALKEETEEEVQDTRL
Assay: YFP-halide influx assay for the CFTR-ΔF508 mutation, gluconate buffer
Type: cell-based
Conditions: CFBE41o- cells, forskolin 10.67 μM
measured parameter: EC50 (nM)

Solved cases below.
CN(c1ccc(F)cc1)S(=O)(=O)c1cc(C(N)=O)c(NC(=O)c2cc[nH]n2)s1 [Compound 173]: 21
NC(=O)c1cc(S(=O)(=O)N2CCOCC2)sc1NC(=O)c1ccccc1C(F)(F)F [Compound 78]: 401
CN(C)S(=O)(=O)c1cc(C(N)=O)c(NC(=O)c2cc[nH]n2)s1 [Compound 75]: 418
CN(CC#N)S(=O)(=O)c1cc(C(N)=O)c(NC(=O)c2ccccc2F)s1 [Compound 125]: 580

A: CN(CC(F)F)S(=O)(=O)c1cc(C(N)=O)c(NC(=O)c2ccccc2F)s1 [Compound 108]
B: CC(C)(C)C(=O)Nc1sc(S(=O)(=O)N2CCOCC2)cc1C(N)=O [Compound 47]
C: CC(C)(C)c1ccc(C(=O)Nc2sc(S(=O)(=O)N3CCC(F)(F)CC3)cc2C(N)=O)cc1 [Compound 65]
Input: Order the entries by their reported EC50, beginning at the minimum. Arrange the labels as the request states and list them.
Output: A, C, B
(A: 198 nM, C: 1570 nM, B: 2660 nM)

---

Molecular target: CFTR G551D mutant (Homo sapiens, UniProt P13569, G551D)
Construct: expressed in transfected cells; host or cells: HEK293 (reverse transfection with plasmid)
Assay: YFP-halide influx assay for the CFTR-G551D mutation
Type: cell-based
Conditions: HEK293 cells, forskolin 10.67 μM
measured parameter: EC50 (nM)

Here's what some known entries look like.
COc1ccc(CN(C)S(=O)(=O)c2cc(C(N)=O)c(NC(=O)c3cc[nH]n3)s2)cc1: 756
CC(C)(O)C(=O)Nc1sc(S(=O)(=O)c2c(F)cc(F)cc2OC(F)F)cc1C(N)=O: 4520
COCCN(CC(F)(F)F)S(=O)(=O)c1cc(C(N)=O)c(NC(=O)c2ccccc2F)s1: 241

P: CC(C)(O)C(=O)Nc1sc(S(=O)(=O)c2cc(Cl)ccc2OC(F)(F)F)cc1C(N)=O
Q: CC(C)(O)C(=O)Nc1sc(S(=O)(=O)c2cc(F)ccc2Br)cc1C(N)=O
R: CC(C)(O)C(=O)Nc1sc(S(=O)(=O)c2ccc(OC(F)(F)F)c(F)c2F)cc1C(N)=O
Input: // smallest EC50 at index 0, largest at the end // format: requested-order list of labels
Output: P, Q, R
(P: 53.2 nM, Q: 227 nM, R: 1850 nM)

P: CC(C)(O)C(=O)Nc1sc(S(=O)(=O)c2cc(C(F)(F)F)ncc2Cl)cc1C(N)=O
Q: CN(C1CC1)S(=O)(=O)c1cc(C(N)=O)c(NC(=O)C2(O)CC2)s1
R: CN(c1ccc(F)cc1)S(=O)(=O)c1cc(C(N)=O)c(NC(=O)C2(O)CC2)s1
Input: hey, can you rank those molecules up there by EC50? biggest number first please Response field: labels, in requested order.
Output: R, Q, P

1: CC(C)(O)C(=O)Nc1sc(S(=O)(=O)c2ccc(C(F)(F)F)cc2F)cc1C(N)=O
2: CN(Cc1ccc(F)cc1)S(=O)(=O)c1cc(C(N)=O)c(NC(=O)C(C)(C)O)s1
3: Cc1ccc(S(=O)(=O)c2cc(C(N)=O)c(NC(=O)C(C)(C)O)s2)cc1
4: CC(C)(O)C(=O)Nc1sc(S(=O)(=O)c2cnc(C(F)(F)F)cn2)cc1C(N)=O
5: Cc1c(S(=O)(=O)c2ccc(C(F)(F)F)cc2F)sc(NC(=O)C(C)(C)O)c1C(N)=O
Input: Write the entries in order, lowest recorded EC50 first. Give the labels in the order specified.
Output: 1, 2, 3, 4, 5

I: CC(O)C(=O)Nc1sc(S(=O)(=O)c2ccccc2OC(F)(F)F)cc1C(N)=O (stereo not shown)
II: CC(C)(O)C(=O)Nc1sc(S(=O)(=O)c2nc(Cl)ccc2C(F)(F)F)cc1C(N)=O
Input: Which has the smaller recorded EC50, I or II ? Write down the label attached to your selection.
Output: II

---

Molecular target: CFTR-G1349D (Homo sapiens, UniProt P13569, G1349D)
Construct: expressed in transfected cells
Sequence (P13569 whole entry G1349D): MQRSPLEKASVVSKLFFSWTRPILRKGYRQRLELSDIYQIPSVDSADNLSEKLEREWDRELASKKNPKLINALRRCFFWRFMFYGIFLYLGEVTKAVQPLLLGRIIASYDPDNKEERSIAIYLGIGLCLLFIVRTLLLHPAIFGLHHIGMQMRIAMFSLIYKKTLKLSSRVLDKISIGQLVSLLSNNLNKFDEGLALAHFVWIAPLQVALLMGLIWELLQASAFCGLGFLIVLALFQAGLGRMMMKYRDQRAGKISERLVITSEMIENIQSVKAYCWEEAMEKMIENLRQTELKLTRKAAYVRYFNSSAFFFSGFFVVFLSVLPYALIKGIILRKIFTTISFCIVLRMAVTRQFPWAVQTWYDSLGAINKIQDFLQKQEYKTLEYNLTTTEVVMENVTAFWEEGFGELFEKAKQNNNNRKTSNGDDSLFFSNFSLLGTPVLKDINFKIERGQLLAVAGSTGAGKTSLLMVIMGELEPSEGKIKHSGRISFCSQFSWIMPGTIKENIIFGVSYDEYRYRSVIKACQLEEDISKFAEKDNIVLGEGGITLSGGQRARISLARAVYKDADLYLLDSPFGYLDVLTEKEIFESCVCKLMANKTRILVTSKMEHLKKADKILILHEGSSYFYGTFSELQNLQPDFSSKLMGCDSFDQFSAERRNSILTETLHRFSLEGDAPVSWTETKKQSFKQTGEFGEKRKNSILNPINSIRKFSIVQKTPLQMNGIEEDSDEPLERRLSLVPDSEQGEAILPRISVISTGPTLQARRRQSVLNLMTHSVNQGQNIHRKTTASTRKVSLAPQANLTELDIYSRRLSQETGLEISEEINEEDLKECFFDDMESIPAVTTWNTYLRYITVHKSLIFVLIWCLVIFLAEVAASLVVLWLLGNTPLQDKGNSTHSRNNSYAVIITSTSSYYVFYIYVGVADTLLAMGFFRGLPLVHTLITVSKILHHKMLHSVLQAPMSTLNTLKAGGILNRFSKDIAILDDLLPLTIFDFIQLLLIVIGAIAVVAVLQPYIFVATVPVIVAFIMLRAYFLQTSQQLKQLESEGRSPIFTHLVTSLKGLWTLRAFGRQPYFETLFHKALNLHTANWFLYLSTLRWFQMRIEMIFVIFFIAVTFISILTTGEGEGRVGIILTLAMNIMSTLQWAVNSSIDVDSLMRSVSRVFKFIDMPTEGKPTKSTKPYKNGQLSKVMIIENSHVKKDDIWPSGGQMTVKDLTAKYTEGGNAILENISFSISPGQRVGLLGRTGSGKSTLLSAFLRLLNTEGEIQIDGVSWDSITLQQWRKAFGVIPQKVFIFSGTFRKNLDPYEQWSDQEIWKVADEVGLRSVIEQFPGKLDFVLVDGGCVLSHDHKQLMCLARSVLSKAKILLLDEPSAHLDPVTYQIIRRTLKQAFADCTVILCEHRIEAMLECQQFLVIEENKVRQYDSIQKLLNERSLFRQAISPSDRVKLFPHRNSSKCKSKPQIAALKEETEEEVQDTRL
Assay: YFP-halide influx assay for the CFTR-G1349D
Type: cell-based
pEC50: −log10 of the molar value.
measured parameter: pEC50

# count of solved cases: 2
CC(C)(O)C(=O)Nc1sc(S(=O)(=O)c2ccc(C(F)(F)F)c(F)c2)cc1C(N)=O [Compound 422]: 6.67
NC(=O)c1cc(S(=O)(=O)c2ccc(OC(F)(F)F)cc2F)sc1NC(=O)C1(CO)CC1 [Compound 435]: 6.93

P: CC(C)(O)C(=O)Nc1sc(S(=O)(=O)c2cc(Cl)ncc2C#N)cc1C(N)=O [Compound 432]
Q: CC(CO)C(=O)Nc1sc(S(=O)(=O)c2ccc(Cl)cc2OC(F)(F)F)cc1C(N)=O (stereo not shown) [Compound 387]
Input: Among P and Q , which shows a numerically higher pEC50 result? Let me know the label of the one you choose.
Output: Q
(Q: 7.08, P: 5.48)

---

Target: CFTR ΔF508 mutant (Homo sapiens, UniProt P13569, DEL508-508)
Construct: expressed in transfected cells; host or cells: CFBE41o- (adenoviral transduction)
Assay: YFP-halide influx assay for the CFTR-ΔF508 mutation (384 well, FDSS/μCell)
Type: cell-based
Conditions: CFBE41o- cells, CFTR-ΔF508, 1×D-PBS, fluorescence after 36 seconds
measured parameter: EC50 (nM)

CC(O)C(=O)Nc1sc(S(=O)(=O)c2ccc(C(F)(F)F)cc2F)cc1C(N)=O (stereo not shown): 17.3

P: CC(C)(O)C(=O)Nc1sc(S(=O)(=O)c2ccc(Cl)nc2)cc1C(N)=O
Q: NC(=O)c1cc(S(=O)(=O)c2ccc(F)cc2Br)sc1NC(=O)C1(O)CC1
R: CC(O)C(=O)Nc1sc(S(=O)(=O)c2ccc(C(F)(F)F)cn2)cc1C(N)=O (stereo not shown)
Input: Sort ascending by EC50. Note for the reader: the ranking is given by listing the labels in the order requested.
Output: Q, P, R
(Q: 19.4 nM, P: 62.6 nM, R: 110 nM)

---

Target: CFTR ΔF508 mutant (Homo sapiens, UniProt P13569, DEL508-508)
Construct: expressed in transfected cells; host or cells: CFBE41o- (adenoviral transduction)
Test: YFP-halide influx assay for the CFTR-ΔF508 mutation, PBS buffer (96 well)
Assay type: cell-based
Conditions: CFBE41o- cells, forskolin 10.67 μM
measured parameter: EC50 (nM)

1: COCCC(=O)Nc1sc(S(=O)(=O)c2ccc(F)cc2)cc1C(N)=O
2: COCCOc1cc(F)ccc1S(=O)(=O)c1cc(C(N)=O)c(NC(=O)C(C)(C)O)s1
3: CC(C)(O)C(=O)Nc1sc(S(=O)(=O)c2cc(F)ccc2O)cc1C(N)=O
4: CC(C)c1ccccc1S(=O)(=O)c1cc(C(N)=O)c(NC(=O)C(C)(C)O)s1
Input: Output the listed items in decreasing order of EC50. Write the labels out in the order the request specifies.
Output: 1, 3, 2, 4
(1: 3100 nM, 3: 727 nM, 2: 157 nM, 4: 15.1 nM)

Values from patent US9382254B2
